The measured values listed here are drawn from patent US20130136748A1.

# EXPERIMENTAL_SYSTEM: hHER3 full length (human, UniProt P21860 20-1342)
# EXPERIMENT: cell-based or functional assay
VALUE_TYPE: IC50, HRG1-β1 induced pERK1/2, MCF-7 (M)
Your answer should be a plain number; it is taken to be in M.

Examples from the recorded data:
- BINDER: "18F05 (VHH, also called 18F5) VHH: EVQLVESGGGLVQPGGSLRLSCVASGFTFSSYWMYWVRQAPGKGVEWVSAISPGGVERYTDSVKGRFTISRDNAKNTLYLQMNSLKSEDTAMYYCARLTSFATPESQGTQVTVSS"
  IC50, HRG1-β1 induced pERK1/2, MCF-7 (M): "8.98e-08"
- BINDER: "17B05 (VHH, also called HER3MS17B05; HER3MS017B05) VHH: EVQLVESGGGLVQPGGSLRLSCAASGSIGGLNAMAWYRQAPGKERELVAGIFGVGSTRYADSVKGRFTISRDIAKNTVFLQMNSLNSEDTAVYYCRMSSVTRGSSDYWGQGTQVTVSS"
  IC50, HRG1-β1 induced pERK1/2, MCF-7 (M): "2.36e-09"
- BINDER: "34C07 (VHH, c-myc, His6-tagged form as expressed; also called 34C7; HER3MS34C07) VHH: EVQLVESGGGLVQPGGSLGLSCVASGSIFRINAMAWYRQAPGKQRELVAEITAGGSTNYADSVKGRFTISVDNAWNTLYLQMNSLKVEDTAVYYCNLDHYTTWDRRSAYWGQGTQVTVSS"
  IC50, HRG1-β1 induced pERK1/2, MCF-7 (M): "1e-07"

Which measured IC50, HRG1-β1 induced pERK1/2, MCF-7 value corresponds to 34A04 (VHH) VHH: EVQLVESGGGLVQAGGSLRLSCAASGFTFDDYTIGWFRQAPGKEREEISCISNNDGSTYYTNSVKGRFTISSDNAKNTVYLQMNSLKPEDTAVYYCAASPHGCWYDLIPLQADFGSWGQGTQVTVSS ?
3.13e-07
